- Target System: Mcl-1 protein (UniProtKB Q07820) (Homo sapiens (Human), UniProt Q07820)
- Sequence (Q07820 whole entry): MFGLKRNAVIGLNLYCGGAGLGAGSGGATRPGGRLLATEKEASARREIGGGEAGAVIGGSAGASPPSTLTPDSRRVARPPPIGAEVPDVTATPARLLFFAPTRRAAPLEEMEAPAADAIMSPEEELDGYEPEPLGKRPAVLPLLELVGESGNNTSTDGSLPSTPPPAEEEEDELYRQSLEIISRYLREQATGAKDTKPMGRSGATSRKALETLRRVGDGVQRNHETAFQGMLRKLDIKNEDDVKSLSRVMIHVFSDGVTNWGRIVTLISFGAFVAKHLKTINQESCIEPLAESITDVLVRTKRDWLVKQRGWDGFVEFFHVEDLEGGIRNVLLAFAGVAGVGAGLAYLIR
- Assay Method Text: Inhibition of Mcl-1 by the fluorescence polarisation assay (Example A, Method A)
- Condition Description: fluorescence polarization assay
Measurement Kind: Ki (µM)
Field format: number, assumed µM, no unit text.

Sample O=C(O)[C@]1(Nc2cccc(Cl)c2)CC[C@]2(CC1)C(c1cccc(OC(F)(F)F)c1)=Cc1ccccc12 — what was its Ki?
0.528

Requested field: Ki. Item: O=C(NCCc1ccccc1)C1Cc2ccccc2[C@]12CC[C@@](Nc1cccc(Cl)c1)(C(=O)O)CC2 (single isomer, unassigned) [Example 406]
6.17

Which measured Ki value corresponds to O=C(O)[C@]1(Nc2cccc(Cl)c2)CC[C@]2(CC1)C(=C1CCCC1)Cc1ccccc12 ?
7.31

Dear colleague, I am looking for the recorded Ki of the following compound: COc1ccc(C2=Cc3ccccc3[C@]23CC[C@@](Nc2cccc(Cl)c2)(C(=O)O)CC3)c(Cl)c1
1.69
